The following molecules are listed with their measured growth values.
System: NCI-H226 lung
Experiment: NCI-60 one-dose screen, 48 h (100 = growth as untreated, 0 = no growth, -100 = all killed)
Conditions: 10 µM unless noted
The panel holds about 83,000 compounds, 20% with a hit somewhere; the sample as a whole holds those more often.
The reply should be a number in %, with the unit left off.

molecule | displayUnit | growth
Cc1nccc2c3ccc(OCc4cn(Cc5ccc(Br)cc5)nn4)cc3n(CCCc3ccccc3)c12 | % | 88.9
COc1ccc(NC(=O)COCCOCCNC[C@@H]2C(=O)O[C@H]3[C@H]2CC/C(COC(=O)OC/C2=C/CC[C@@]4(C)O[C@H]4[C@H]4OC(=O)[C@@H](CN(C)C)[C@@H]4CC2)=C\CC[C@@]2(C)O[C@@H]32)c(O)c1C(N)=O | % | 49.9
O=C(N/N=C1\SCC(=O)N1c1ccccc1)c1cc(-c2cc3ccccc3o2)nn1-c1ccccc1 | % | 118
COc1cc(NC(=O)C#Cc2ccccc2)c(OC)cc1Cl | % | 64.7
COc1cc2ncnc(Oc3ccc(NC(=O)Nc4ccc(C5(C#N)CCCC5)cc4)c4ccccc34)c2cc1OC | % | 80.3
O=C(CNc1cccnc1)Nc1ccc(C(=O)/C=C/c2ccc(Cl)cc2)cc1 | % | 86.4
CN1CCN(Cn2nc(-c3cc(F)c(Cl)cc3Cl)n(/N=C/c3ccc(N(C)C)cc3)c2=S)CC1 | % | 101
CCn1c(SC)nnc1-c1cc2c([nH]c3ccccc32)c(-c2cccc(O)c2)n1 | % | 51.3
Cc1ccc2c(C3C(C#N)=C(N)Oc4cc5ccccc5cc43)cc(=O)oc2c1 (stereo not drawn) | % | 87.8
C=C1C(=O)O[C@H]2[C@H]1CC/C(COC(=O)c1cccc3ccccc13)=C\CC[C@@]1(C)O[C@@H]21 | % | -79.9

stdin: Any idea what growth was measured for C=C1C(=O)O[C@H]2[C@H]1CC/C(COC(=O)c1cc(OC)c(OC)c(OC)c1)=C\CC[C@@]1(C)O[C@@H]21 ?
stdout: -12.1

stdin: Any idea what growth was measured for Nc1nc(Cl)c2c(C(F)(F)F)cn(CC3CCNCC3)c2n1 ?
stdout: 111

stdin: Any idea what growth was measured for CC1CCc2cc(F)cc3c(=O)c(C(=O)O)cn1c23 (stereo not drawn) ?
stdout: 103

----------
Test system: HT29 colon
Experiment: NCI-60 one-dose screen, 48 h
Conditions: 10 µM unless noted
This is part of a sample that, as a whole, favours compounds with a hit. Of some 83,000 tested, about 20% had one in any assay. Activity calls are given as the source filed them. Rule for the calls: active = growth percent below 10; inactive = the rest.
The categories you may choose from are active, inactive

Please review the entries below; each comes with its answer.
compound | category
O=C(O)c1cccc2oc(-c3ccccc3O)nc12 | inactive
O=C(c1cc(-c2ccc(Cl)cc2)nc2ccccc12)N1N=C(c2ccccc2)CC1c1cc(-c2ccccc2)nn1-c1ccccc1 (stereo not given) | inactive
CCn1c(SC)nnc1-c1cc2c([nH]c3ccccc32)c(-c2cccc(O)c2)n1 | inactive
Cc1ccc2c(c1)Nc1ccc(C)cc1C2(C)C | inactive
O=C1CCC(c2c(O)cc(O)c3c(=O)c(O)c(-c4ccc(O)c(O)c4)oc23)N1 (stereo not given) | inactive
O=C(COc1ccc(Cl)cc1)N1CCN(Cc2ccc3c(c2)OCO3)CC1 | inactive
Cc1cccc(NC(=O)CCc2ccc(N3C(N)=NC(N)=NC3(C)C)cc2)c1 | inactive
COc1ccc(-c2nn(-c3ccc(NC(=O)c4cc(Cl)cc(Cl)c4)cc3)cc2-c2ccncc2)cc1Cl | active

stdin: Hello, I am checking results. What call was entered for CCCCCCCCN(CCCCCCCC)CC(O)c1cc(-c2ccccc2)nc2ccc(OC)cc12 (stereo not given) ?
stdout: inactive

----------
The following compounds are listed with their measured growth values.
System: EKVX NSCLC
Assay: NCI-60 one-dose screen, 48 h (100 = growth as untreated, 0 = no growth, -100 = all killed)
Details: 10 µM unless noted
This is part of a sample that, as a whole, favours compounds with a hit. Of some 83,000 tested, about 20% had one in any assay.
The reply should be a number in %, with the unit left off.

compound | targetUnderTest | growth [%]
COc1ccc(Cl)cc1NC(=O)c1cc2c(n1C)-c1nc(NC(=O)C(C)(C)C)sc1CC2 | EKVX NSCLC | 76.2

Consider the additional compound presented here.
stdin: Test system EKVX NSCLC; read-out growth; what value for O=C(COc1ccc(Cl)cc1Cl)N1N=C(c2ccc(Cl)cc2Cl)CC1(O)c1cc(F)c(Cl)cc1Cl (centres undefined) ?
stdout: 87.7

----------
Test system: MDA-MB-231 breast
Assay: NCI-60 one-dose screen, 48 h (100 = growth as untreated, 0 = no growth, -100 = all killed)
Details: 10 µM unless noted
About 83,000 compounds went through this panel and 20% of them were active in at least one assay; those are over-represented in the sample as a whole.
The following compounds are listed with their measured growth values.
The reply should be a number in %, with the unit left off.

These recorded examples may help you get a feel for the data.
compound | growth / %
Cc1ccc2c(C3C(C#N)=C(N)Oc4cc5ccccc5cc43)cc(=O)oc2c1 (stereo not given) | 50.6
O=C(N/N=C1\SCC(=O)N1c1ccccc1)c1cc(-c2cc3ccccc3o2)nn1-c1ccccc1 | 91.9
CC(C)Cn1cnc2c3ccccc3nc(NCn3nc(-c4cc(Cl)cc(Cl)c4Cl)oc3=S)c21 | 82.9
COc1cc2ncnc(Oc3ccc(NC(=O)Nc4ccc(C5(C#N)CCCC5)cc4)c4ccccc34)c2cc1OC | 43.6

Consider the additional compound presented here.
stdin: Any idea what growth was measured for Nc1ncc(-c2ccc3ncnc(Nc4cncc(Cl)c4)c3c2)cn1 ?
stdout: 66.5

----------
Tested on: CCRF-CEM leukemia
Assay: NCI-60 one-dose screen, 48 h (100 = growth as untreated, 0 = no growth, -100 = all killed)
Settings: 10 µM unless noted
The panel holds about 83,000 compounds, 20% with a hit somewhere; the sample as a whole holds those more often.
Friendly reminder: growth below 90% is T, at or above is F.

compound | category
COc1ccc(-c2[nH]c3ccccc3c2/C=C(\C#N)S(=O)(=O)c2ccccc2)cc1 | T

Turning to the following compound.
stdin: Decide: growth of CCCOC(=O)c1ccc([N+](=O)[O-])o1 strictly below 90%?
stdout: F

----------
The following compounds are listed with their measured growth values.
System: OVCAR-5 ovarian
Assay: NCI-60 one-dose screen, 48 h (100 = growth as untreated, 0 = no growth, -100 = all killed)
Settings: 10 µM unless noted
About 83,000 compounds went through this panel and 20% of them were active in at least one assay; those are over-represented in the sample as a whole.
The reply should be a number in %, with the unit left off.

These recorded examples may help you get a feel for the data.
compoundStructureString | displayUnit | growth
S=c1ssnc1-c1ccccn1 | % | 70.1
C=C1C(=O)O[C@H]2[C@H]1CC/C(COC(=O)c1ccc3ccccc3c1)=C\CC[C@@]1(C)O[C@@H]21 | % | -52.9
CCNC(=O)Oc1ccc(/C(=C(/CC)Cc2ccccc2)c2ccc(OCCN3CCOCC3)cc2)cc1 | % | 94.8
O=C(Nc1ccc(-n2ccc3c(NC(=O)c4ccccc4)nccc32)cc1)c1ccc(Cl)c(C(F)(F)F)c1 | % | 62.9
COc1ccc(-c2[nH]c3ccccc3c2/C=C(\C#N)S(=O)(=O)c2ccccc2)cc1 | % | 32.2
CC(=S)Nc1ccccc1 | % | 99.8
COc1cc(C(=O)NNC(=O)c2ccccc2C(=O)O)cc(OC)c1OC | % | 84.5
COC(=O)CCCNS(=O)(=O)c1cc(C(=O)Nc2ccc(NC(=O)c3cc(S(=O)(=O)NCCCC(=O)OC)c(O)c(O)c3O)cc2)c(O)c(O)c1O | % | 107

stdin: Any idea what growth was measured for COc1ccc(/C=C2\CS(=O)(=O)C/C(=C\c3ccc(OC)cc3)C2=O)cc1 ?
stdout: -20.2

----------
System: IGROV1 ovarian
Assay: NCI-60 one-dose screen, 48 h
Conditions: 10 µM unless noted
Compounds without any hit were thinned out: in the full panel of roughly 83,000, 20% have a hit. Calls of active or inactive are those of the source. Rule for the calls: active = growth percent below 10; inactive = the rest.
The categories you may choose from are active, inactive

Please review the entries below; each comes with its answer.
compound | category
O=C1c2ccccc2C(=O)c2c(NCCN=Cc3c(O)ccc4ccccc34)cccc21 | inactive
Nc1nccc2c1ccn2-c1ccc(NC(=O)Nc2cccc(C(F)(F)F)c2)cc1 | inactive
COc1cc(/C=C2/Oc3cc4occc4c(OC)c3C2=O)ccc1OCC(=O)Nc1ccncc1 | inactive

stdin: Hello, I am checking results. What call was entered for COc1ccc(-c2ccc(NC(=O)Nc3ccc(Cl)c(C(F)(F)F)c3)c(C)n2)cc1 ?
stdout: inactive

stdin: Hello, I am checking results. What call was entered for OC(COc1ccccc1Cl)CN1CCN(c2ccc(Cl)cc2)CC1 (centres undefined) ?
stdout: inactive

stdin: Hello, I am checking results. What call was entered for CC(C)(C)C(=O)Nc1nc2c(s1)CCc1ccn(S(=O)(=O)c3ccccc3)c1-2 ?
stdout: inactive

stdin: Hello, I am checking results. What call was entered for CCCCCC/C=N/Nc1ccc([N+](=O)[O-])cn1 ?
stdout: inactive

Where these numbers come from: PubChem BioAssay (NCI)
